ASSAYED_TARGET: Full length LIGHT S193A on HEK293FF cells (Homo sapiens (Human), UniProt O43557 1-240)
Sequence (O43557 whole entry S193A): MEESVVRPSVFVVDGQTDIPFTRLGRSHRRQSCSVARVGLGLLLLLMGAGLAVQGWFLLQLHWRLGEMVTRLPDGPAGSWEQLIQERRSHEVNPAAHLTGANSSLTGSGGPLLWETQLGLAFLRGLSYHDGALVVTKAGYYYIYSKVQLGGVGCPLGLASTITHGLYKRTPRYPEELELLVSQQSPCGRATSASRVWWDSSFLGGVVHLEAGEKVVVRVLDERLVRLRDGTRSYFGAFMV
TEST_SUMMARY: flow cytometry, HEK293FF, mAb at EC50
MEASURE: % of WT binding (%)

2B11 chimeric IgG4 mAb (antibody, V domains shown, Chimeric human IgG4 (S-to-P, L-to-E) with human CL, as m1; Often misprinted 2B111; also called Parental 2B11; 2B111) VH: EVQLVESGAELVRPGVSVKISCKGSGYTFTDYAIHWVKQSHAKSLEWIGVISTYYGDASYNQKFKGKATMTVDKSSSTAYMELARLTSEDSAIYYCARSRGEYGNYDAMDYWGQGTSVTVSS VL: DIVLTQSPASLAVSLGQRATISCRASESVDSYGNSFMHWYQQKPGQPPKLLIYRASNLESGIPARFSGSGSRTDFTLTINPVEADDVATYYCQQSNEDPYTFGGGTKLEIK	0
3A07 chimeric IgG4 mAb (antibody, V domains shown, Chimeric human IgG4 (S-to-P, L-to-E) with human CL, as m1; also called Parental 3A07) VH: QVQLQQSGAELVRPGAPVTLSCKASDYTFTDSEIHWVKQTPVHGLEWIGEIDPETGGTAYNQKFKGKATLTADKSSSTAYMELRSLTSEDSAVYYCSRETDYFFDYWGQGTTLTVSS VL: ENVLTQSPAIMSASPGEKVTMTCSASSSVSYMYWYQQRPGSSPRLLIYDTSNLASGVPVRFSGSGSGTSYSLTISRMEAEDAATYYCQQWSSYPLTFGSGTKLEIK	0
3B04 chimeric IgG4 mAb (antibody, V domains shown, also called Parental 3B04) VH: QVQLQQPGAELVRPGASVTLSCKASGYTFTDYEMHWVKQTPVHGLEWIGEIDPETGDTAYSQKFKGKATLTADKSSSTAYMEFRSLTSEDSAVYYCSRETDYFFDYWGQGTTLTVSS VL: DIQMTQTPASLSASVGETVTITCGASENIYGALNWYQRKQGKSPQLLIYGATNLADGMSSRFSGSGSGRQYSLKISSLHPDDFATYYCQNVLTTPWTFGGGTKLEIK	0
